Reference for the values: PubChem BioAssay (NCI)

- procedureSummary: NCI Yeast Anticancer Drug Screen. Data for the bub3 strain (AID 167)
- runConditions: S. cerevisiae bub3 mutant strain, at 50.0 µM
This is part of a sample that, as a whole, favours compounds with a hit. Of some 79,000 tested, about 15% had one in any assay. Activity calls are given as the source filed them. No stated cut-off is given here; in the data, active means growth inhibition above about 70%; inactive means the rest.
Outcomes you can answer with include only these: true (1) = active, false (0) = inactive

[ask] Could you please tell me the result logged for O=C(/C=C/c1cc(Cl)cc(Cl)c1O)c1cccc(O)c1 in this assay?
[reply] true (1)

[ask] For CCN(CC)CCOc1cc(C)c2cc(Cc3ccccc3)ccc2n1 , which call appears in the assay record?
[reply] true (1)

[ask] What classification did CCC(C)OC(=O)Nc1ccc(C)c(NC(=O)OC(C)CC)c1 (stereo not given) end up with in this test?
[reply] true (1)

[ask] Hi, sorry to bother you, what did the test record for Cc1c(C(C)C)cc(OCCO)cc1C(C)C ?
[reply] false (0)

[ask] Can you look up the reported call for O=C(O)c1ccccc1/C=N/N=C1c2ccccc2-c2ccccc21 for me?
[reply] false (0)

[ask] Lab log entry: COC(=O)/C=C(/CC(=O)OC)C(=O)OC — outcome as called in the assay?
[reply] false (0)

[ask] Hi, do you know how COc1ccc(/C=C/c2sc3ccccc3[n+]2CCCCI)cc1OC came out in this test?
[reply] true (1)

[ask] Query: recorded result category for O=C(COC(=O)c1ccccc1)c1ccc(Br)cc1 in this test
[reply] true (1)

[ask] Please indicate how the test categorized Cc1cccc2c1nc1ccc(Cl)cc1[n+]2C .
[reply] true (1)

[ask] # fetch the recorded call for O=C(O)c1cc2ccc(Cl)cc2c(O)c1C1=CCCCC1 here
[reply] false (0)

[ask] Answer briefly: the call reported for COC1CCC(O)C(/C=C/[N+](=O)[O-])C1 (stereo not given) in this assay.
[reply] true (1)

[ask] GET /call?item= CCOC1=C/C(=N\Nc2ccc([N+](=O)[O-])cc2)CCC1 returns the recorded outcome of this test.
[reply] true (1)

[ask] Status in this test for O=C1C=C(c2ccccc2)OC1(c1ccccc1)N1CCOCC1 (stereo not given) ?
[reply] false (0)

[ask] In this assay, the call recorded for c1ccc(Cc2cc(-c3ccccc3)n[nH]2)cc1 was what?
[reply] true (1)

[ask] # fetch the recorded call for O=C1C(=O)c2ccccc2C(O)=C1C(C1=C(O)c2ccccc2C(=O)C1=O)c1ccc(Cl)cc1 here
[reply] true (1)

[ask] I would be grateful if you could indicate the recorded call for COc1cc(C2SCC(=O)N2c2ccc(-c3ccc(-n4c(-c5ccccc5)nc5ccccc5c4=O)cc3)cc2)ccc1O (stereo not given) .
[reply] true (1)

[ask] In this assay, the call recorded for Cc1ccc2c3ccc4c(c3n(C)c2c1)C(=O)C=CC4=O was what?
[reply] false (0)

[ask] Lab log entry: c1ccc(CCN2CCc3ccccc3C2)cc1 — outcome as called in the assay?
[reply] false (0)

[ask] Assay outcome for CSc1nc(C)c(CCOC(C)=O)c(N=P(c2ccccc2)(c2ccccc2)c2ccccc2)n1 : what was it?
[reply] true (1)

[ask] # outcome recorded in this test, key = O=C1c2ccccc2C(=O)c2cc(CCl)ccc21
[reply] false (0)

[ask] Call for entry CCCCCCCCCCCCCCCCOP(=O)(O)OCC(N)C(=O)O (stereo not given) :
[reply] true (1)

[ask] Check the results log: what was the call for CN(C)c1ccc2c(SCC(=O)OCC(=O)[C@@]3(O)CC[C@H]4[C@@H]5CCC6=CC(=O)C=C[C@]6(C)[C@H]5C(=O)C[C@@]43C)c3ccc(N(C)C)cc3nc2c1 ?
[reply] true (1)

[ask] Which outcome did this test record for the compound C/C(=N\Nc1ccc([N+](=O)[O-])cc1[N+](=O)[O-])c1sc(-n2nc(-c3ccccc3)cc2-c2ccccc2)nc1C ?
[reply] true (1)

[ask] For this compound, state the assay outcome: CC(C)c1ccc(NC(=S)NC(=O)c2ccccc2)cc1
[reply] true (1)

[ask] // outcome(item) with item = CC(C)=NOC(=O)Nc1ccc(Cl)cc1
[reply] false (0)

[ask] In this assay, the call recorded for Oc1ccc(SCc2ccc(NCc3ccccc3)cc2)cc1 was what?
[reply] true (1)

[ask] Hi team, can someone confirm the assay call for NC(=O)C(=O)NNc1ccccc1 ?
[reply] true (1)

[ask] For this compound, state the assay outcome: CSc1nnc(SC)nn1
[reply] true (1)

[ask] Can you look up the reported call for COc1ccc(C(NCCNC(c2ccc(OC)c(OC)c2)c2cc3c(cc2O)OCO3)c2cc3c(cc2O)OCO3)cc1OC (stereo not given) for me?
[reply] false (0)

[ask] Record request — test call for CNC(=O)OCc1c(COC(=O)NC)c2n(c1C)-c1ccc(OC)cc1CCC2
[reply] true (1)

[ask] Identify the outcome logged in this assay for the compound shown: O=C(O)C1CC(c2ccccc2)=NN1c1ccccc1 (stereo not given)
[reply] false (0)

[ask] Hey, what did the test say about Nc1ccc2c(c1)C(=O)c1ccc(F)cc1-2 ?
[reply] false (0)

[ask] Field: outcome | Entry: NCCNCCNc1ccc(NCCNCCN)c2c1C(=O)c1c(O)ccc(O)c1C2=O
[reply] false (0)

[ask] Each compound tested received a call. Report the one for O=C(CC(C(=O)O)N1CCOCC1)c1ccccc1 (stereo not given) .
[reply] false (0)

[ask] Can you look up the reported call for C[C@]12CC[C@H](O)CC1=CC[C@@H]1C2CC[C@]2(C)C(=O)NC(=O)CC12 (stereo not given in full) for me?
[reply] true (1)
